Assay System: T1, mouse serum albumin (mouse, UniProt P07724 25-608)
T1 construct: mature; purified protein on CM5 chips for BIAcore; also called MSA; mouse SA
T1 sequence (P07724 25-608): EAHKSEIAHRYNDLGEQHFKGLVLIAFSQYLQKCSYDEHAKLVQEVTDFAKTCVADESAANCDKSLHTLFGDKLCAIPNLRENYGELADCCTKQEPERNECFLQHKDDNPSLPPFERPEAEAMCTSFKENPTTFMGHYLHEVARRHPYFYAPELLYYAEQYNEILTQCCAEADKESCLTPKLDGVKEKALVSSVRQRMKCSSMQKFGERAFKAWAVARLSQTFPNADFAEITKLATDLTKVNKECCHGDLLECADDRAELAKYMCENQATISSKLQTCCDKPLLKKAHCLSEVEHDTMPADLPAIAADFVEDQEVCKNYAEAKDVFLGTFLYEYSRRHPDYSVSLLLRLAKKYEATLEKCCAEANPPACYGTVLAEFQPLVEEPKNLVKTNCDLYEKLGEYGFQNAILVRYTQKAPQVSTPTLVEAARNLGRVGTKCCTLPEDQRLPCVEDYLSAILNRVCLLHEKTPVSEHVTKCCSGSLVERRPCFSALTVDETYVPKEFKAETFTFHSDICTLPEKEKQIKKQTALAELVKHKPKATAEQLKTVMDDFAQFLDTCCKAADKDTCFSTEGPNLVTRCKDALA
Measurement Protocol: BIAcore SPR;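 note: purified dAbs run at 1 µM, 500 nM and 50 nM over human, cynomolgus, mouse and rat serum albumin in BIAcore binding measurements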
Field: pKd. Provide a value for each of the binders that follow.
# reply with the number alone; pKd is -log10 of concentration in mol/L

Query: What value of pKd has been recorded for this entry: DOM7h-14-19 (other, Vk dAb (AlbudAb)) VL: DIQMTQSPSSLSASVGDRVTISCRASQWIGSQLSWYQQKPGEAPKLLIMWRSSLQSGVPSRFSGSGSGTDFTLTISSLQPEDFATYYCAQGAALPRTFGQGTKVEIKR
Response: 7.22

Query: Now consider DOM7h-11-18 (other) VL: DIQMTQSPSSLSASVGDRVTITCRASRPIGTMLSWYQQKPGKAPKLLIWFGSRLQSGVPSRFSGSGSGTDFTLTISSLQPEDFATYHCAQAGTHPTTFGQGTKVEIKR .
Response: 6.82

Query: Now consider DOM7h-14-18 (other, Vk dAb (AlbudAb)) VL: DIQMTQSPSSLSASVGDRVTITCRASQWIGSQLSWYQQKPGKAPKLLIMWRSSLQSGVPSRFSGSGSGTDFTLTISSLQPEDFATYYCAQGLMKPMTFGQGTKVEIKR .
Response: 7.19
